Data provenance: patent US20030166687A1

- Measured target: gelatinase
- Method: MMP particle concentration fluorescence assay, gelatinase
- Cond: in vitro; 15 min preincubation, 1-3 hours with substrate at room temperature, pH 7.5
- Experimental: Inhibitory activity is evaluated in one or more of the MMP enzymes (stromelysin, gelatinase, and collagenase) in vitro using particle concentration fluorescence assay. […] Without an inhibitor present, the substrate is degraded by MMP enzymes and the fluorescein group is removed, therefore, no fluorescent signal can be detected. […] After 15 minutes, the fluorescence values are measured following filtration and washing of the beads. Ki values are then calculated.
Property measured: Ki (nM)

Answered examples (3):
>>> print(df.to_string())
                                   molecule  value_measured
0  COc1ccc(S(=O)(=O)CC(O)(CS(=O)(=O)c2ccc(OC)cc2)C(=O)NO)cc1             7.5
1  COc1ccc(S(=O)(=O)CC(O)(CNC(=O)c2ccccc2)C(=O)NO)cc1 (centres unmarked)              23
2  COc1ccc(S(=O)(=O)CC(O)(CNC(=O)C2CCCC2)C(=O)NO)cc1 (centres unmarked)              70

I. COc1ccc(C(=O)NCC(O)(CS(=O)(=O)c2ccc(OC)cc2)C(=O)NO)cc1 (centres unmarked)
II. COc1ccc(S(=O)(=O)CC(O)(CS(=O)(=O)c2ccc(-c3ccccc3)cc2)C(=O)NO)cc1 (single isomer, unassigned) [1, Enantiomer A]
Ask: Response body: label of entry with the larger Ki; valid values I , II . Answer = label.
Reply: I
